target: SF9 affinity purified rat farnesyl protein transferase (Rattus norvegicus, UniProt Q02293+Q04631); construct: made in house; host or cells: Sf9 insect cells (baculovirus system inferred from b7); experiment: PFT inhibitory activity (radiolabeled farnesyl pyrophosphate, streptavidin bead assay); type: biochemical; conditions: HEPES buffer pH 7.4, without 5 mM potassium phosphate; read-out: IC50 (μM) Hepes
measured endpoint: IC50 (µM)
Numbers only, in µM.

Answered cases to consult:
O=C(CN(Cc1ccc(OCc2ccccc2)cc1)C(=O)[C@H](Cc1c[nH]cn1)NC(=O)OCc1ccccc1)NCCc1ccccc1F [Example 7] : 9.8
COc1cccc(CN(CC(=O)NCC(C)c2ccccc2)C(=O)[C@H](Cc2c[nH]cn2)NC(=O)OCc2ccccc2)c1 (stereo partly drawn) [Example 35] : 2.1

Read off the recorded IC50 for CN(Cc1ccccc1)C(=O)N[C@@H](Cc1c[nH]cn1)C(=O)N(CC(=O)NCC(C)(C)c1ccccc1)Cc1ccc(OCc2ccccc2)cc1 [Example 41]
0.009
